Listing: Kd of selected sequences
# Test system: CD133-negative cell surface (HEK293T or T98G; no CD133) (Homo sapiens)
# experimentalDetails: flow
# appliedConditions: 2'-F pyrimidines; 3'-inverted dT; CD133-negative HEK293T cells; 37 C
# number only, unit µM dropped from output

CCCUCCUACAUAGGG [CD133-1-2-2] :: 120

Now for another entry.
Q: Value wanted: Kd (CD133-negative cell surface (HEK293T or T98G; no CD133) (Homo sapiens)) of entry CAGAACGUAUACUAUUCUG [CD133-2-1]
Result: 1740
